Origin of values: PubChem BioAssay AID1159580

normalized growth: recorded values
Assay: chemical genetic growth profiling, strain panel (AID 1159580);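 further: tested at 20 µM; growth read once vehicle control cultures reached saturation at 30 °C; 1 = growth at the plate median or of vehicle wells; lower values mean less growth of the strain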
Details: S. cerevisiae deletion strains, growth OD, locus YGR229C, strain SMI1, stronger effect = lower value
Among all 5,500 compounds or so, about 2,000 (36%) were called active. Another 18% or so got no clear call; they are omitted. The list shows a part of the results.
measure name: normalized growth

[
  {
    "molecule": "COc1ccc2c(c1)OC[C@@H](Cc1ccc(OC)c(OC)c1)[C@@H]2O",
    "readout value": 0.993
  },
  {
    "molecule": "NC/C=C/C(=O)O",
    "readout value": 1.01
  },
  {
    "molecule": "COc1ccc(-c2c(O)c3cc4c(c(CC=C(C)C)c3oc2=O)OC(C)(C)CC4)cc1",
    "readout value": 1.02
  },
  {
    "molecule": "CNC1(C)C2CCC(C2)C1(C)C (stereo not drawn)",
    "readout value": 0.987
  },
  {
    "molecule": "S=C=NCc1ccccc1",
    "readout value": 0.0658
  },
  {
    "molecule": "Nc1cc(Cl)c(NC2=NCCN2)c(Cl)c1",
    "readout value": 1.01
  },
  {
    "molecule": "CC(=O)OCC(CCn1cnc2cnc(N)nc21)COC(C)=O",
    "readout value": 1.01
  },
  {
    "molecule": "Cc1cc(=O)c2c(O)cc(O)c(C)c2o1",
    "readout value": 1.01
  },
  {
    "molecule": "CC(C)[N+](C)(CCOC(=O)C1c2ccccc2Oc2ccccc21)C(C)C",
    "readout value": 1.02
  },
  {
    "molecule": "C[CH2][Hg][S]c1ccccc1C(=O)O",
    "readout value": 0.0574
  },
  {
    "molecule": "Cc1c(O)cc(O)c2c(=O)c(-c3ccc(O)cc3)coc12",
    "readout value": 0.987
  },
  {
    "molecule": "CCSC(=N)N",
    "readout value": 1.04
  },
  {
    "molecule": "CCC(C(N)=O)c1ccccc1 (stereo not drawn)",
    "readout value": 1.01
  }
]
